Entry source: patent US11382907B2

Target: CCR3 receptor (Homo sapiens)
Sequence (P51677 1-355): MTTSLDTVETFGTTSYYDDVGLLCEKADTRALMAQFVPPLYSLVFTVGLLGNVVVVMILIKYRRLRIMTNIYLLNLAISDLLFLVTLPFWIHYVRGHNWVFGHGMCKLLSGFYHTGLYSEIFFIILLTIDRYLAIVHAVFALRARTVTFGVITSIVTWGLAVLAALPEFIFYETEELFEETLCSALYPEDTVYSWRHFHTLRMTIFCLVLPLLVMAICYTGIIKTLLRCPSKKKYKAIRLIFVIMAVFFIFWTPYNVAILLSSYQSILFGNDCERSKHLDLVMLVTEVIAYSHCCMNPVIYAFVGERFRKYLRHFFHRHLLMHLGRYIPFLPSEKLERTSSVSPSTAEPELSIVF
Experiment: CCR3 receptor internalization biomarker assay (FACS, whole blood)
propertyMeasured: IC50

Record request: IC50 value, item Cc1cc(C(=O)N(C)C)cc(NC(=O)[C@H]2CCC(=O)N2C2CCN(Cc3ccc(Cl)c(C)c3)CC2)n1
< 100 nM
